Assay: Mouse plasma PK (IV and PO dosing)
Format: in vivo, Male C57 Bl/6J mice
Settings: male, C57 Bl/6J, mouse, plasma, po, 7 mg/kg, PO 7 mg/kg, mouse plasma, average; read-out: AUCINF—obs (converted)
measured-endpoint: AUC(0-inf) (ng·h/mL)
Answers are plain numbers, in ng·h/mL.

Give the measured AUC(0-inf) for "Nc1ccc(-c2cccs2)cc1NC(=O)c1ccc2c(c1)CCC(=O)N2" 4710

* * *

Experiment: Mouse plasma PK (IV and PO dosing)
Assay type: in vivo, Male C57 Bl/6J mice
Settings: male, C57 Bl/6J, mouse, plasma, iv, 1 mg/kg, IV 1 mg/kg, mouse plasma, average; read-out: T1/2 (converted)
measured-endpoint: half-life (h)
Give bare numbers, in h.

Give the measured half-life for "Nc1ccc(-c2cccs2)cc1NC(=O)c1ccc2c(c1)CCC(=O)N2" 1.48
